targetEntity: T1, human CDC6, two-hybrid fusion in pEG202 (human, UniProt Q99741 1-560)
T1 construct: CDC6, human; clone from A. Dutta, cloned in the BamH1 and Not1 sites of pEG202; also called HuCDC6; hCDC6; source: yeast two-hybrid fusion
T1 sequence (looked up): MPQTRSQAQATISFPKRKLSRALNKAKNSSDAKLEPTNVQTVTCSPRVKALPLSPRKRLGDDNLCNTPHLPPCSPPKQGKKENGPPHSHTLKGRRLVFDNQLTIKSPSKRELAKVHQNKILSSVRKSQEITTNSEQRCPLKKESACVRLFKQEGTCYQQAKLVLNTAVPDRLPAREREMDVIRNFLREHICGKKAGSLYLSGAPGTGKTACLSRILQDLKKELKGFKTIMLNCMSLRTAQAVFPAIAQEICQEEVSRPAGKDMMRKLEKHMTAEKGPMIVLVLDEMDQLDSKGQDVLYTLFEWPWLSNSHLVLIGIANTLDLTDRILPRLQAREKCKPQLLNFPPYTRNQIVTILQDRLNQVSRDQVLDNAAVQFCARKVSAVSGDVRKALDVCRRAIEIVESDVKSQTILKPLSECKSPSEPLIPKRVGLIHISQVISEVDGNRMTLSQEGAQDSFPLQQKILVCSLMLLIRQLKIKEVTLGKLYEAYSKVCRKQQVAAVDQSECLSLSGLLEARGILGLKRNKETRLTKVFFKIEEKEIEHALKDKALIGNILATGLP
experimentalDetails: two-hybrid; quantitative liquid beta-galactosidase assays; values as a percentage of the cdc6/TTC4 interaction
conditionParameters: partners not purified
assayEndpoint: two-hybrid beta-galactosidase, percentage of the cdc6/TTC4 interaction (%)
Give just the number in %; leave the unit off.

Inquiry: Name the recorded two-hybrid beta-galactosidase, percentage of the cdc6/TTC4 interaction for human TTC4, two-hybrid fusion in pJG4.5 (natural protein, UniProt O95801 1-387, looked up, TTC4 (tetratricopeptide repeat protein 4), human; full length gene, insert amplified and cloned in the EcoR1 and Xho sites of pJG4.5; source: yeast two-hybrid fusion) MEQPGQDPTSDDVMDSFLEKFQSQPYRGGFHEDQWEKEFEKVPLFMSRAPSEIDPRENPDLACLQSIIFDEERSPEEQAKTYKDEGNDYFKEKDYKKAVISYTEGLKKKCADPDLNAVLYTNRAAAQYYLGNFRSALNDVTAARKLKPCHLKAIIRGALCHLELKHFAEAVNWCDEGLQIDAKEKKLLEMRAKADKLKRIEQRDVRKANLKEKKERNQNEALLQAIKARNIRLSEAACEDEDSASEGLGELFLDGLSTENPHGARLSLDGQGRLSWPVLFLYPEYAQSDFISAFHEDSRFIDHLMVMFGETPSWDLEQKYCPDNLEVYFEDEDRAELYRVPAKSTLLQVLQHQRYFVKALTPAFLVCVGSSPFCKNFLRGRKVYQIR .
Reply text: 100
